Cited source for all entries: patent US20250263376A1

# System: E. coli WP2
# method_notes: Ames microplate test, E. coli WP2;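 further: bacteria exposed to compound for 90 min at 37 °C in 24-well plates, then transferred with indicator medium to 384-well plates and incubated 48 h before yellow well counting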
# measurement_conditions: 1.0 mM, + S9
Hi there, I'd appreciate the recorded Increase in the number of yellow wells compared to the reference level, E. coli WP2 for every entry that follows.
Give bare numbers.

For CCC(O)CNC(=O)/C=C/c1ccc(Cl)cc1 (stereo not shown) , what is its reported Increase in the number of yellow wells compared to the reference level, E. coli WP2? 0.42

Let us now turn to O=C(/C=C/c1ccc(Cl)cc1)NCCCCCO 0.71

Let us now turn to O=C(/C=C/c1ccccc1)NCCCCCCO 0.83

Moving on to another compound below.
For O=C(/C=C/c1ccccc1)NCCCCCO , what is its reported Increase in the number of yellow wells compared to the reference level, E. coli WP2? 0.44

====

# Test system: neuroblastoma SH-SY5Y
# method_notes: Safety, MTT test in SH-SY5Y
# Format: cell-based
# measurement_conditions: 150 μM, 48 hours
endpoint: MTT, Neuroblastoma SH-SY5Y

For O=C(/C=C/c1ccc(Cl)cc1)NCCCO [H-330/21] , what is its reported MTT, Neuroblastoma SH-SY5Y? 99.86 ± 3.76 % of solvent control

Let us now turn to O=C(/C=C/c1ccc(Cl)cc1)NCCO [H-427/21] 100.96 ± 2.72 % of solvent control

Let us now turn to O=C(/C=C/c1ccc(Cl)cc1)NCCCCCO [Compound A-111] 99.32 ± 3.36 % of solvent control

Let us now turn to O=C(/C=C/c1ccccc1)NCCCCCO [Compound A-133] 100.75 ± 3.01 % of solvent control

Moving on to another compound below.
For Cc1ccc(/C=C/C(=O)NCCCCCO)cc1 [H-415/21] , what is its reported MTT, Neuroblastoma SH-SY5Y? 99.32 ± 2.96 % of solvent control

====

# Tested on: S. typhimurium TA1537
# method_notes: Ames microplate test, TA1537
# Assay type: cell-based, Salmonella typhimurium
# measurement_conditions: 2.0 mM, without S9
endpoint: Increase in the number of yellow wells compared to the reference level, TA1537
One number for each entry.

Solved cases below.
For CCC(O)CNC(=O)/C=C/c1ccc(Cl)cc1 (stereo not drawn) [Compound A-67] , what is its reported Increase in the number of yellow wells compared to the reference level, TA1537? 0.82

Let us now turn to O=C(/C=C/c1ccc(Cl)cc1)NCCCCCO [Compound A-111] 0.54

Let us now turn to O=C(/C=C/c1ccccc1)NCCCCCCO [H-425/21] 0.82

Let us now turn to Cc1ccc(/C=C/C(=O)NCCCCCO)cc1 [H-415/21] 0.00

Let us now turn to CC(CO)NC(=O)/C=C/c1ccc(Cl)cc1 (stereo not drawn) [Compound A-102] 1.00

Moving on to another compound below.
For O=C(/C=C/c1ccccc1)NCCCCCO [Compound A-133] , what is its reported Increase in the number of yellow wells compared to the reference level, TA1537? 0.54

====

# Test system: S. typhimurium TA100
# method_notes: Ames microplate test, TA100
# Format: cell-based, Salmonella typhimurium
# measurement_conditions: 0.5 mM, + S9
endpoint: Increase in the number of yellow wells compared to the reference level, TA100
Numbers only.

Solved cases below.
For O=C(/C=C/c1ccccc1)NCCCCCCO , what is its reported Increase in the number of yellow wells compared to the reference level, TA100? 0.50

Let us now turn to CCC(O)CNC(=O)/C=C/c1ccc(Cl)cc1 (stereo not shown) 0.78

Let us now turn to O=C(/C=C/c1ccccc1)NCCCCCO 0.83

Next:
For O=C(/C=C/c1ccc(Cl)cc1)NCCCCCO , what is its reported Increase in the number of yellow wells compared to the reference level, TA100? 0.97
